Molecular target: Sigma non-opioid intracellular receptor 1 (Rattus norvegicus, UniProt Q9R0C9)
Sequence (Q9R0C9 whole entry): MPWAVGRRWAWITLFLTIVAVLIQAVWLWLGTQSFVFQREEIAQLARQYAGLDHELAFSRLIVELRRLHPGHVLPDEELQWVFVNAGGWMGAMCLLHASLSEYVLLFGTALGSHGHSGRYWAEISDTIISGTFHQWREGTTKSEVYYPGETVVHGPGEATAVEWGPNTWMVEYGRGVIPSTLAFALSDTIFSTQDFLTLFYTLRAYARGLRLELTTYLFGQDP
Assay: biochemical
Description: Displacement of [3H](+)-pentazocine from sigma1 receptor in rat brain homogenate after 120 mins
measured endpoint: Ki (nM)
Give the value in nM but do not write nM after it.

Query: Need Ki, item "S=c1sc2ccccc2n1CCCCN1CCN(C2CCCCC2)CC1"
Response: 1.3

* * *

Kindly supply the reported pKi values for the records listed here.
Assay: Binding affinity to sigma2 receptor
Set-up: species or system Homo sapiens
In textbook form, pKi equals minus log to base ten of the concentration in mol/L.

Query: Please give the measured pKi for this compound: COc1cccc2c1CCCC2CCCN1CCN(Cc2ccccc2)CC1 (stereo not drawn)
Response: 5.73

Query: Return reported pKi; argument: "COc1cccc(CCN2CCN(CCCc3ccccc3)CC2)c1"
Response: 7.99

Query: # query: pKi of entry "c1ccc(CN2CCN(Cc3ccccc3)CC2)cc1"
Response: 5.89

* * *

Test: Selectivity ratio of Ki for rat sigma2 receptor to Ki for guinea pig sigma1 receptor
measured endpoint: Ratio Ki
Write the value as a bare number.

Query: Given "CCCOc1ccc(CN2CCN(Cc3cc4ccccc4o3)CC2)cc1" , state its recorded Ratio Ki.
Response: 143

Query: Can you share its Ratio Ki? I mean this molecule: "COc1ccc(CN2CCN(Cc3cc4ccccc4o3)C2)cc1"
Response: 58

Query: Look up Ratio Ki for this molecule: "COc1ccc(CN2CCCN(Cc3cc4ccccc4o3)CC2)cc1"
Response: 220

Query: Recorded Ratio Ki of "CCOc1ccc(CN2CCN(Cc3cc4ccccc4o3)CC2)cc1" , please.
Response: 6190

Query: # query: Ratio Ki of entry "FCCOc1ccc(CN2CCCN(Cc3cc4ccccc4o3)CC2)cc1"
Response: 881

Query: Sample "FCCCOc1ccc(CN2CCN(Cc3cc4ccccc4o3)C2)cc1" — what was its Ratio Ki?
Response: 175

Query: What does the record list as Ratio Ki for "CCOc1ccc(CN2CCCN(Cc3cc4ccccc4o3)CC2)cc1" ?
Response: 1500

Query: Suppose we examine the molecule "CCCOc1ccc(CN2CCN(Cc3cc4ccccc4o3)C2)cc1" ; what Ratio Ki value has been reported?
Response: 121

Query: Can you share its Ratio Ki? I mean this molecule: "CCOc1ccc(CN2CCN(Cc3cc4ccccc4o3)C2)cc1"
Response: 123

Query: // query Ratio Ki value for entry "FCCOc1ccc(CN2CCN(Cc3cc4ccccc4o3)CC2)cc1"
Response: 16100

Query: For the molecule "FCCOc1ccc(CN2CCN(Cc3cc4ccccc4o3)C2)cc1" , what Ratio Ki is on record?
Response: 237

Query: GET /values?readout=Ratio Ki&item= "COc1ccc(CN2CCN(Cc3cc4ccccc4o3)CC2)cc1"
Response: 929

* * *

Experiment: Selectivity ratio of Ki for rat sigma2 receptor to Ki for guinea pig sigma1 receptor
measured endpoint: Ratio Ki
Just the number, please.

Query: # input molecule: "CCCOc1ccc(CN2CCCN(Cc3cc4ccccc4o3)CC2)cc1" ; wanted: its Ratio Ki
Response: 4600

Query: Given "FCCCOc1ccc(CN2CCN(Cc3cc4ccccc4o3)CC2)cc1" , state its recorded Ratio Ki.
Response: 842

Query: Tell me the measured Ratio Ki of "FCCCOc1ccc(CN2CCCN(Cc3cc4ccccc4o3)CC2)cc1" , please.
Response: 11500

* * *

Target: Sigma non-opioid intracellular receptor 1 (Cavia porcellus, UniProt Q60492)
Sequence (Q60492 whole entry): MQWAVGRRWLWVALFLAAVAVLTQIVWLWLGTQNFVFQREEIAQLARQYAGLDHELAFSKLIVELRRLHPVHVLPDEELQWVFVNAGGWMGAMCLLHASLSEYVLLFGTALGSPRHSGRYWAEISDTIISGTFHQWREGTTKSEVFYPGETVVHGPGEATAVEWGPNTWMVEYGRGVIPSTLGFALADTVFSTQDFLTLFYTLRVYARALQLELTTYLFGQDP
Assay: Displacement of [3H](+)-pentazocine from sigma1 receptor in guinea pig brain homogenate
Would you kindly list Ki for each of these molecules?
# output: bare number, implied unit nM

Query: If you can, please state the reported Ki value of "COc1ccc(CN2CCCN(Cc3cc4ccccc4o3)CC2)cc1" .
Response: 0.54

Query: Recorded Ki of "CCOc1ccc(CN2CCCN(Cc3cc4ccccc4o3)CC2)cc1" , please.
Response: 0.194

Query: Give the measured Ki of "FCCOc1ccc(CN2CCN(Cc3cc4ccccc4o3)C2)cc1" .
Response: 6.45

Query: Fill blank: measured Ki of the molecule "CCCOc1ccc(CN2CCN(Cc3cc4ccccc4o3)C2)cc1" is ____.
Response: 53.5

Query: Which Ki value belongs to "FCCOc1ccc(CN2CCN(Cc3cc4ccccc4o3)CC2)cc1" ?
Response: 0.05

Query: What does the record list as Ki for "CCCOc1ccc(CN2CCCN(Cc3cc4ccccc4o3)CC2)cc1" ?
Response: 0.152

Query: GET /values?readout=Ki&item= "CCOc1ccc(CN2CCN(Cc3cc4ccccc4o3)C2)cc1"
Response: 19.3

Query: Find the recorded Ki belonging to "FCCCOc1ccc(CN2CCN(Cc3cc4ccccc4o3)C2)cc1" and report it.
Response: 20.8

Query: Dear colleague, I am looking for the recorded Ki of the following molecule: "FCCCOc1ccc(CN2CCCN(Cc3cc4ccccc4o3)CC2)cc1"
Response: 0.12

Query: Ki for "CCOc1ccc(CN2CCN(Cc3cc4ccccc4o3)CC2)cc1" ?
Response: 0.18

Query: Entry "CCCOc1ccc(CN2CCN(Cc3cc4ccccc4o3)CC2)cc1" has what Ki?
Response: 10.3

Query: Fill in: Ki of "COc1ccc(CN2CCN(Cc3cc4ccccc4o3)C2)cc1" is ___
Response: 43

Query: Give the measured Ki of "FCCOc1ccc(CN2CCCN(Cc3cc4ccccc4o3)CC2)cc1" .
Response: 0.1

Query: Any idea what Ki was measured for "FCCCOc1ccc(CN2CCN(Cc3cc4ccccc4o3)CC2)cc1" ?
Response: 1.61

Query: Report Ki for "COc1ccc(CN2CCN(Cc3cc4ccccc4o3)CC2)cc1" please.
Response: 0.18

* * *

Test: Binding affinity to sigma2 receptor in guinea pig brain homogenate
Assay type: tissue-based, Cavia porcellus
measured endpoint: Ki (nM)
Just the number please, in nM, no unit attached.

Query: Requested field: Ki. Item: COc1ccc(CCN2CCN(CCCc3ccccc3)CC2)cc1OC [[11C]SA4503]
Response: 63

* * *

Test: Binding affinity to sigma1 receptor
measured endpoint: Ki
Be sure to follow the number with its unit.

Query: Would you kindly share the measured Ki for "COc1cccc(CCN2CCN(CCCc3ccccc3)CC2)c1" ?
Response: 1.4 nM

* * *

Assay: Displacement of [3H]DTG from sigma2 receptor in rat liver homogenate in presence of (+)-pentazocine
Format: tissue-based
measured endpoint: Ki (µM)
Report only the number, with the unit µM understood.

Query: State the recorded Ki for this entry: "CCOc1ccc(CN2CCN(Cc3cc4ccccc4o3)CC2)cc1"
Response: 1.11

Query: Fill in: Ki of "CCCOc1ccc(CN2CCN(Cc3cc4ccccc4o3)CC2)cc1" is ___
Response: 1.47

Query: Item "CCOc1ccc(CN2CCCN(Cc3cc4ccccc4o3)CC2)cc1" has what recorded Ki?
Response: 0.292

Query: // query Ki value for entry "CCCOc1ccc(CN2CCCN(Cc3cc4ccccc4o3)CC2)cc1"
Response: 0.7

Query: Ki lookup needed for "COc1ccc(CN2CCN(Cc3cc4ccccc4o3)C2)cc1" , thanks.
Response: 2.5

Query: Given the entry "FCCCOc1ccc(CN2CCN(Cc3cc4ccccc4o3)C2)cc1" , report its measured Ki.
Response: 3.64

Query: If you can, please state the reported Ki value of "COc1ccc(CN2CCN(Cc3cc4ccccc4o3)CC2)cc1" .
Response: 0.167

Query: Query (compound): "COc1ccc(CN2CCCN(Cc3cc4ccccc4o3)CC2)cc1" ; field requested: Ki
Response: 0.119

Query: # Ki lookup, item "FCCCOc1ccc(CN2CCN(Cc3cc4ccccc4o3)CC2)cc1"
Response: 1.35

Query: So what does the record say about Ki for "FCCOc1ccc(CN2CCN(Cc3cc4ccccc4o3)CC2)cc1" ?
Response: 0.807

Query: Can you share its Ki? I mean this compound: "FCCCOc1ccc(CN2CCCN(Cc3cc4ccccc4o3)CC2)cc1"
Response: 1.39

Query: Which Ki is listed for "CCCOc1ccc(CN2CCN(Cc3cc4ccccc4o3)C2)cc1" ?
Response: 6.47

Query: Item "CCOc1ccc(CN2CCN(Cc3cc4ccccc4o3)C2)cc1" has what recorded Ki?
Response: 2.38

Query: So what does the record say about Ki for "FCCOc1ccc(CN2CCN(Cc3cc4ccccc4o3)C2)cc1" ?
Response: 1.53

Query: Any idea what Ki was measured for "FCCOc1ccc(CN2CCCN(Cc3cc4ccccc4o3)CC2)cc1" ?
Response: 0.0881
